Source listed as ChEMBL document CHEMBL4000230.

experiment: Inhibition of forskolin-stimulated CREB (unknown origin)-mediated gene transcription in HEK293T cells preincubated for 30 mins followed by forskolin-stimulation measured after 6 hrs by luciferase reporter gene assay; assay type: cell-based; settings: Homo sapiens, HEK-293T
I'd appreciate it if you could supply pIC50 values for the items below.
pIC50 (log units): -log10 of the concentration in mol/L.

Give reported pIC50 value for `NCCCOc1c(C(=O)NCCOc2cc3ccccc3cc2C(=O)Nc2ccc(Cl)cc2O)ccc2ccccc12`
4.62

Give reported pIC50 value for `NCCCOc1cc(C(=O)NCCOc2cc3ccccc3cc2C(=O)Nc2ccc(Cl)cc2O)cc2ccccc12`
4.76

Give reported pIC50 value for `NCCCOc1ccc2ccccc2c1C(=O)NCCOc1cc2ccccc2cc1C(=O)Nc1ccc(Cl)cc1O`
4.72

Give reported pIC50 value for `NCCCOc1cc(C(=O)NCCOc2cc3ccccc3cc2C(=O)Nc2ccc(Cl)cc2O)c2ccccc2c1`
4.72
